targetOfAssay: Mu-type opioid receptor (Homo sapiens, UniProt P35372)
Sequence (P35372 whole entry): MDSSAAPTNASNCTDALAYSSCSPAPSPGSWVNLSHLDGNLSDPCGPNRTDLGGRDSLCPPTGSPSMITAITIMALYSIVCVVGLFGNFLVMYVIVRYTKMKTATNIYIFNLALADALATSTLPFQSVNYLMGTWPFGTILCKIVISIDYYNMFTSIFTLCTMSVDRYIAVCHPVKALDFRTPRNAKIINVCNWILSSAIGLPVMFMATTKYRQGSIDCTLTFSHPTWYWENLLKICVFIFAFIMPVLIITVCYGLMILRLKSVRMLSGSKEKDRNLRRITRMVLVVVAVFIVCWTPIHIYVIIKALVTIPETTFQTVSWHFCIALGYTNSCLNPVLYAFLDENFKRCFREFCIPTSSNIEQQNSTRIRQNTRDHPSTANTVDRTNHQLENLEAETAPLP
protocol: Displacement of [3H]diprenorphine from human cloned mu opioid receptor
measuredAttribute: Ki (nM)

- C[C@H]1CN(CCc2ccccc2)[C@H](CCCc2ccccc2)C[C@@]1(C)c1cccc(O)c1: 230
- CCCCN1C[C@H](C)[C@](C)(c2cccc(O)c2)C[C@H]1CCC: 550
- CCC[C@@H]1C[C@@](C)(c2cccc(O)c2)[C@@H](C)CN1CCC: 430
- CCC[C@@H]1C[C@@](C)(c2cccc(O)c2)[C@@H](C)CN1: 560
- C[C@H]1CN(CCc2ccccc2)[C@H](CCNC(=O)c2ccccc2)C[C@@]1(C)c1cccc(O)c1: 59
- CCCC[C@@H]1C[C@@](C)(c2cccc(O)c2)[C@@H](C)CN1CCc1ccccc1: 110
- CC[C@@H]1C[C@@](C)(c2cccc(O)c2)[C@@H](C)CN1CCc1ccccc1: 75

---

targetOfAssay: Mu-type opioid receptor (Homo sapiens, UniProt P35372)
protocol: Inhibition of loperamide-stimulated [35S]GTP-gamma-S binding to membranes containing mu opioid receptor
Binning scheme for IC50: range A = under 90 nM, range B = from 90 nM up to 200 nM, range C = 200 nM and over

• CCCCCCCN1C[C@H](C)[C@](C)(c2cccc(O)c2)C[C@H]1CCC = range A
• CCC[C@@H]1C[C@@](C)(c2cccc(O)c2)[C@@H](C)CN1CC = range B
• C[C@@H]1C[C@@](C)(c2cccc(O)c2)[C@@H](C)CN1CCc1ccccc1 = range A
• CC(=O)NCC[C@@H]1C[C@@](C)(c2cccc(O)c2)[C@@H](C)CN1CCc1ccccc1 = range B
• CCC[C@@H]1C[C@@](C)(c2cccc(O)c2)[C@@H](C)CN1CCc1ccccc1 = range A
• C[C@H]1CN(CCc2ccccc2)[C@H](CCN2CCCC2)C[C@@]1(C)c1cccc(O)c1 = range C
• CCC[C@@H]1C[C@@](C)(c2cccc(O)c2)[C@@H](C)CN1C = range B
• C[C@H]1CN(CCc2ccccc2)[C@H](CCNC(=O)c2ccccc2)C[C@@]1(C)c1cccc(O)c1 = range B
• CCCCCN1C[C@H](C)[C@](C)(c2cccc(O)c2)C[C@H]1CCC = range C
• CCCCN1C[C@H](C)[C@](C)(c2cccc(O)c2)C[C@H]1CCC = range C
• C[C@H]1CN(CCc2ccccc2)[C@H](CCc2ccccc2)C[C@@]1(C)c1cccc(O)c1 = range C
• C[C@H]1CN(CCc2ccccc2)[C@H](CCN)C[C@@]1(C)c1cccc(O)c1 = range C
• CCC[C@@H]1C[C@@](C)(c2cccc(O)c2)[C@@H](C)CN1 = range C
• CCCCCCN1C[C@H](C)[C@](C)(c2cccc(O)c2)C[C@H]1CCC = range A
• CCC[C@@H]1C[C@@](C)(c2cccc(O)c2)[C@@H](C)CN1CCCc1ccccc1 = range A
• CCC[C@@H]1C[C@@](C)(c2cccc(O)c2)[C@@H](C)CN1Cc1ccccc1 = range B
• CCC[C@@H]1C[C@@](C)(c2cccc(O)c2)[C@@H](C)CN1CCC = range C
• C[C@H]1CN(CCc2ccccc2)[C@H](c2ccccc2)C[C@@]1(C)c1cccc(O)c1 = range C
• CCCC[C@@H]1C[C@@](C)(c2cccc(O)c2)[C@@H](C)CN1CCc1ccccc1 = range B

---

Below, each entry is listed with its recorded Ki.
targetOfAssay: Delta-type opioid receptor (Homo sapiens, UniProt P41143)
Sequence (P41143 whole entry): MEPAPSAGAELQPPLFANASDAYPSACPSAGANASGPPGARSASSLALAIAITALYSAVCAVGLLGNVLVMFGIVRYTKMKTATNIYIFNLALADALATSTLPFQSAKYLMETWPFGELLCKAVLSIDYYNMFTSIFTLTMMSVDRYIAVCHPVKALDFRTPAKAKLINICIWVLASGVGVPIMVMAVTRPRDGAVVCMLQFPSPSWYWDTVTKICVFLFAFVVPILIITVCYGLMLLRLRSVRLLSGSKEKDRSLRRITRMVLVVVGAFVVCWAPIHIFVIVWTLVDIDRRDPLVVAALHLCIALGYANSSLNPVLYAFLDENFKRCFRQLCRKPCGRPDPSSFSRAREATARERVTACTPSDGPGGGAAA
protocol: Displacement of [3H]diprenorphine from human cloned delta opioid receptor
measuredAttribute: Ki

* CCC[C@@H]1C[C@@](C)(c2cccc(O)c2)[C@@H](C)CN1CC | > 1000 nM
* CC(=O)NCC[C@@H]1C[C@@](C)(c2cccc(O)c2)[C@@H](C)CN1CCc1ccccc1 | > 1000 nM
* C[C@H]1CN(CCc2ccccc2)[C@H](CCCc2ccccc2)C[C@@]1(C)c1cccc(O)c1 | 320 nM
* CCCCN1C[C@H](C)[C@](C)(c2cccc(O)c2)C[C@H]1CCC | > 1000 nM
* CC(C)[C@@H]1C[C@@](C)(c2cccc(O)c2)[C@@H](C)CN1CCc1ccccc1 | > 1000 nM
* C[C@H]1CN(CCc2ccccc2)[C@H](CCN2CCCC2)C[C@@]1(C)c1cccc(O)c1 | > 1000 nM
* CCC[C@@H]1C[C@@](C)(c2cccc(O)c2)[C@@H](C)CN1C | > 1000 nM
* CCCCCN1C[C@H](C)[C@](C)(c2cccc(O)c2)C[C@H]1CCC | > 1000 nM
* CCCC[C@@H]1C[C@@](C)(c2cccc(O)c2)[C@@H](C)CN1CCc1ccccc1 | 580 nM
* C[C@H]1CN(CCc2ccccc2)[C@H](CCNC(=O)c2ccccc2)C[C@@]1(C)c1cccc(O)c1 | 710 nM
* CCCCCCCN1C[C@H](C)[C@](C)(c2cccc(O)c2)C[C@H]1CCC | 80 nM
* C[C@H]1CN(CCc2ccccc2)[C@H](CCc2ccccc2)C[C@@]1(C)c1cccc(O)c1 | 610 nM
* CCC[C@@H]1C[C@@](C)(c2cccc(O)c2)[C@@H](C)CN1CCCc1ccccc1 | 180 nM

---

Reported Ki, Kappa-type opioid receptor (Homo sapiens, UniProt P41145).
measuredAttribute: Ki (nM)

• CC(=O)NCC[C@@H]1C[C@@](C)(c2cccc(O)c2)[C@@H](C)CN1CCc1ccccc1 = 620
• C[C@H]1CN(CCc2ccccc2)[C@H](CCc2ccccc2)C[C@@]1(C)c1cccc(O)c1 = 790
• CCC[C@@H]1C[C@@](C)(c2cccc(O)c2)[C@@H](C)CN1C = 220
• CCC[C@@H]1C[C@@](C)(c2cccc(O)c2)[C@@H](C)CN1CCC = 360
• CCCCCN1C[C@H](C)[C@](C)(c2cccc(O)c2)C[C@H]1CCC = 570

---

Below, each entry is listed with its recorded IC50.
targetOfAssay: Mu-type opioid receptor (Homo sapiens)
protocol: Inhibition of loperamide-stimulated [35S]GTP-gamma-S binding to membranes containing mu opioid receptor
measuredAttribute: IC50 (nM)

* CC(C)[C@@H]1C[C@@](C)(c2cccc(O)c2)[C@@H](C)CN1CCc1ccccc1 | 620
* C[C@H]1CN(CCc2ccccc2)[C@H](CCCc2ccccc2)C[C@@]1(C)c1cccc(O)c1 | 360
* C[C@H]1CN(CCc2ccccc2)[C@H](Cc2ccccc2)C[C@@]1(C)c1cccc(O)c1 | 280

---

Reported pKi, Kappa-type opioid receptor (Homo sapiens, UniProt P41145).
pKi: −log10 of the molar value.
measuredAttribute: pKi

• C[C@H]1CN(CCc2ccccc2)[C@H](CCN)C[C@@]1(C)c1cccc(O)c1 = 6.29
• CCCCCCCN1C[C@H](C)[C@](C)(c2cccc(O)c2)C[C@H]1CCC = 7.24
• C[C@H]1CN(CCc2ccccc2)[C@H](CCNC(=O)c2ccccc2)C[C@@]1(C)c1cccc(O)c1 = 6.70
• CCC[C@@H]1C[C@@](C)(c2cccc(O)c2)[C@@H](C)CN1CC = 6.57
• CCCC[C@@H]1C[C@@](C)(c2cccc(O)c2)[C@@H](C)CN1CCc1ccccc1 = 6.70
• CC[C@@H]1C[C@@](C)(c2cccc(O)c2)[C@@H](C)CN1CCc1ccccc1 = 6.15
• CCC[C@@H]1C[C@@](C)(c2cccc(O)c2)[C@@H](C)CN1CCc1ccccc1 = 6.96
• CCCCN1C[C@H](C)[C@](C)(c2cccc(O)c2)C[C@H]1CCC = 6.21

---

Below, each entry is listed with its recorded Ki.
targetOfAssay: Delta-type opioid receptor (Homo sapiens, UniProt P41143)
protocol: Displacement of [3H]diprenorphine from human cloned delta opioid receptor
measuredAttribute: Ki

- CCC[C@@H]1C[C@@](C)(c2cccc(O)c2)[C@@H](C)CN1CCC: > 1 µM
- CCC[C@@H]1C[C@@](C)(c2cccc(O)c2)[C@@H](C)CN1: > 1 µM
- C[C@H]1CN(CCc2ccccc2)[C@H](CCN)C[C@@]1(C)c1cccc(O)c1: > 1 µM
